Assign pEC50 to each entry below.
- target entity: human S1PR5 (Homo sapiens)
- Construct: host or cells: CHO-K1
- Sequence (Q9H228 whole entry): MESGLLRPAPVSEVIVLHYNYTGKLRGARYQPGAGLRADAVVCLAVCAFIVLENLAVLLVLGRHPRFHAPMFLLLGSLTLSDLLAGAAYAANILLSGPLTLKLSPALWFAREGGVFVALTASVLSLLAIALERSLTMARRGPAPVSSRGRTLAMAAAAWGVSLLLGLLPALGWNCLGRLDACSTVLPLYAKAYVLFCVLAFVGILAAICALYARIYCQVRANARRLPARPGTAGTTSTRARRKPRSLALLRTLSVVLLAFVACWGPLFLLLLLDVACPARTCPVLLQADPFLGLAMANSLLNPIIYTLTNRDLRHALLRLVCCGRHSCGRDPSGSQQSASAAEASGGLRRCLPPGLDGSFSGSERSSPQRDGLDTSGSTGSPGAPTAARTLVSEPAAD
- procedure summary: Intracellular Ca2+ release (FLIPR) agonist potency, S1P5
- Assay type: cell-based
- test conditions: recombinant CHO-K1 cells expressing human S1PR5, aequorin, Gq/i5; Calcium 5 FLIPR; read-out: S1P5 EC50 range
pEC50: −log10 of the molar value.

Kindly note the recorded pEC50 for O=C(O)C1CN(C2COc3cc(OCc4cc(F)cc(C(F)(F)F)c4)ccc3C2)C1 (stereo not drawn) , which is 7.00 to 8.00

Entry O=C(O)CCOC1CCc2cc(OCc3ccc(OC(F)(F)F)cc3)ccc2C1 (stereo not drawn) ; pEC50 = 5.00 to 6.00

The measured pEC50 associated with O=C(O)C1CN(C2COc3cc(CCc4cc(F)cc(F)c4)ccc3C2)C1 (stereo not drawn) reads 5.00 to 6.00

----------
- target entity: human S1PR4 (Homo sapiens, UniProt O95977)
- Construct: host or cells: CHO-K1
- Sequence (O95977 1-384): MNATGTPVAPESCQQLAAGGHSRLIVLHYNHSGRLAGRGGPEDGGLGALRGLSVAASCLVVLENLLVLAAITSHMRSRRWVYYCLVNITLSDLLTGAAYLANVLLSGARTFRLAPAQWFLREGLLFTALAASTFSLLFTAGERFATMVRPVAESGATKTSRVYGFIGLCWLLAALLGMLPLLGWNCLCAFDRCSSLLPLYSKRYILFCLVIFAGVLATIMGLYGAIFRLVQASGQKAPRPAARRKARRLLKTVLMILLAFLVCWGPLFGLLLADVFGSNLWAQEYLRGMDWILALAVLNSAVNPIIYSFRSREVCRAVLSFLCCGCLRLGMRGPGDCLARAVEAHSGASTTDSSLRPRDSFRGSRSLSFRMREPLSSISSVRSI
- procedure summary: Intracellular Ca2+ release (FLIPR) agonist potency, S1P4
- Type: cell-based
- test conditions: recombinant CHO-K1 cells expressing human S1PR4, aequorin, Gq/i5; Calcium 5 FLIPR; read-out: S1P4 EC50
reported property: EC50

Note to self: EC50 recorded for O=C(O)[C@H]1C[C@H](NC2CCc3cc(OCc4c(Cl)cccc4Cl)ccc3C2)C1 (some centres unmarked) [Compound 79] was < 1 µM

Notebook: CCc1cccc(Cl)c1COc1ccc2c(c1)CCC(N1CC(C(=O)N(C)OC)C1)C2 (centres unmarked) [Compound 217] , EC50 read as > 1 µM

Notebook: CN(CC(=O)O)C1COc2cc(OCc3ccc(OCc4ccc(Cl)cc4)cc3)ccc2C1 (centres unmarked) [Compound 135] , EC50 read as > 1 µM

For O=C(O)COC1CCc2cc(OCc3c(Cl)cccc3C3CC3)ccc2C1 (centres unmarked) [Compound 143] the compound record lists EC50 as > 1 µM

The recorded EC50 for entry O=C(O)COC1CCc2cc(OCc3ccc(OC(F)(F)F)cc3)ccc2C1 (centres unmarked) [Compound 203] equals > 1 µM

According to the records, this compound O=C(O)COC1CCc2cc(OCc3cc(C(F)(F)F)ccc3Cl)ccc2C1 (centres unmarked) [Compound 151] displays EC50 of > 1 µM

Looking up O=C(O)CNC1COc2cc(OCC3CCCCC3)ccc2C1 (centres unmarked) [Compound 113] , I found its EC50 recorded as > 1 µM

For this compound ( CCCC1(C(=O)O)CN([C@@H]2COc3cc(OCc4c(Cl)cccc4Cl)ccc3C2)C1 [Compound 141] ), measured EC50 is > 1 µM
